# target-system: Cell-associated proTGFβ1 complexes (hGARP-proTGFβ1 and hLRRC33-proTGFβ1)
# procedure-details: MSD-SET, hIgG4
Parameter: Cell AVRG (average KD, hGARP and hLRRC33 complexes). Scope: all listed entries.
# number only, unit nM dropped from output

Some binders with recorded Cell AVRG (average KD, hGARP and hLRRC33 complexes):
Just so you know, measured Cell AVRG (average KD, hGARP and hLRRC33 complexes) for Ab22 (antibody, IgG4, V domains shown) VH: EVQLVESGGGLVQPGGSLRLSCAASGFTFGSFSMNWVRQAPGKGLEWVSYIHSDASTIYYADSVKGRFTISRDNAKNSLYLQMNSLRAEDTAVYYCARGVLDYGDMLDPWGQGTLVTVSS VL: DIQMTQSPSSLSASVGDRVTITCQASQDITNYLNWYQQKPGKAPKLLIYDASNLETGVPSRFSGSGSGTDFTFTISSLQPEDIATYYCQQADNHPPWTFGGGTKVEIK came out at 0.114

Just so you know, measured Cell AVRG (average KD, hGARP and hLRRC33 complexes) for Ab4 (antibody, IgG4, V domains shown) VH: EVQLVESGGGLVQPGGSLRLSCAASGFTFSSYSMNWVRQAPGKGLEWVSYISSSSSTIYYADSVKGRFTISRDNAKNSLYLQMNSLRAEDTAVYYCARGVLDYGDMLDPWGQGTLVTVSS VL: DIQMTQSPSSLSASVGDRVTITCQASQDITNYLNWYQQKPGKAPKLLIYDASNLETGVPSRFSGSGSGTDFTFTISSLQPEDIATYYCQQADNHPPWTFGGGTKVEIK came out at 2.3

Moving on to the next binder.
Just so you know, measured Cell AVRG (average KD, hGARP and hLRRC33 complexes) for Ab30 (antibody, IgG4, V domains shown) VH: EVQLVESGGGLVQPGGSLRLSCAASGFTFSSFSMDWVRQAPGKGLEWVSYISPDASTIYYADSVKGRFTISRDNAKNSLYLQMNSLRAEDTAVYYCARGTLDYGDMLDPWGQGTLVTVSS VL: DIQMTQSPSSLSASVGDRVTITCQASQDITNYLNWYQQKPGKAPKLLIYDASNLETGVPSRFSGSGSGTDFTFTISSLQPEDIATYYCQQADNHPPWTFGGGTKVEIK came out at 0.081

Sourced from patent US20250282857A1
